- measurement description: chemical genetic growth profiling, strain panel (AID 1159580);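 further: tested at 20 µM; growth read once vehicle control cultures reached saturation at 30 °C; 1 = growth at the plate median or of vehicle wells; lower values mean less growth of the strain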
- measurement parameters: S. cerevisiae deletion strains, growth OD, locus YNL322C, strain KRE1 (second series), hits give low values
The campaign covered roughly 5,500 compounds. About 2,000 (36%) were called active. Not shown: some 18% with an inconclusive outcome. Some of the results follow.
Kindly state normalized growth for each of the entries shown.
Form field (numeric): enter value without unit.

Consider the molecule shown here: CC(=O)N[C@@H](Cc1c[nH]c2ccccc12)C(=O)O What is its recorded normalized growth?
0.995

Consider the molecule shown here: CC(=O)Oc1cc2c(c(C)c1OC(C)=O)CC1OC13C2(C)CCC1(C)C2CC(C)(C(=O)O)CCC2(C)CCC13C (centres undefined) What is its recorded normalized growth?
0.994

Consider the molecule shown here: COc1cc(NS(=O)(=O)c2ccc(N)cc2)ncn1 What is its recorded normalized growth?
0.955

Consider the molecule shown here: C1CCC(C(CC2CCCCN2)C2CCCCC2)CC1 (centres undefined) What is its recorded normalized growth?
0.975

Consider the molecule shown here: COc1c2c(cc3c1OCO3)C13C=C[C@H](OC)CC1N(C2)CC3O (some centres undefined) What is its recorded normalized growth?
0.983

Consider the molecule shown here: O=C(O)[C@H](O)[C@@](O)(Cc1ccc(O)cc1)C(=O)O What is its recorded normalized growth?
1.01

Consider the molecule shown here: CC(=O)OCC1=C(C(=O)O)N2C(=O)[C@@H](NC(=O)CCCC(N)C(=O)O)C2SC1 (some centres undefined) What is its recorded normalized growth?
0.99

Consider the molecule shown here: COc1cc(-c2coc3cc(O[C@@H]4O[C@H](CO)[C@@H](O)[C@H](O)[C@H]4O)c(OC)c(O)c3c2=O)cc(O)c1OC What is its recorded normalized growth?
0.977

Consider the molecule shown here: CC1=C(O)C(=O)C=C2C1=CC=C1[C@@]2(C)CC[C@@]2(C)[C@@H]3C[C@](C)(C(=O)O)CC[C@]3(C)CC[C@]12C What is its recorded normalized growth?
0.937

Consider the molecule shown here: CC(=O)OC[C@H]1O[C@@H](Oc2cc(OC(C)=O)c3c(=O)cc(-c4ccc(OC(C)=O)cc4)oc3c2)[C@H](OC(C)=O)[C@@H](OC(C)=O)[C@@H]1OC(C)=O What is its recorded normalized growth?
1.01

Consider the molecule shown here: COc1ccc2c(c1)[C@]13CCCC[C@H]1[C@H](C2)N(C)CC3 What is its recorded normalized growth?
0.93

Consider the molecule shown here: COC(=O)[C@]1(C)CC[C@]2(C)CC[C@]3(C)C4=CC=C5C(=CC(=O)C(O)=C5C)[C@]4(C)CC[C@@]3(C)[C@@H]2C1 What is its recorded normalized growth?
0.978

Consider the molecule shown here: COc1ccc([C@H]2COc3c(ccc(O)c3OC)C2)c(OC)c1O What is its recorded normalized growth?
0.991

Consider the molecule shown here: CO[C@@]1(NC(=O)Cc2cccs2)C(=O)N2C(C(=O)O)=C(COC(N)=O)CS[C@@H]21 What is its recorded normalized growth?
0.972

Consider the molecule shown here: CC(=O)OCC(=O)[C@@]12OC3(CCCC3)O[C@@H]1CC1C3CCC4=CC(=O)C=C[C@]4(C)[C@@]3(F)[C@@H](O)C[C@@]12C (some centres undefined) What is its recorded normalized growth?
1.03

Consider the molecule shown here: Cc1c(NC(=O)c2cccnc2)c(=O)n(-c2ccccc2)n1C What is its recorded normalized growth?
0.995

Consider the molecule shown here: OCc1c[nH]c2ccccc12 What is its recorded normalized growth?
0.996

Consider the molecule shown here: NC(N)=NC(N)=Nc1ccccc1 What is its recorded normalized growth?
1

Consider the molecule shown here: COc1cc2c(cc1OC)[C@@]13CCN4CC5=CCOC6CC(=O)N2C1[C@H]6[C@H]5C[C@H]43 (some centres undefined) What is its recorded normalized growth?
0.982
